System Name: cellular retinol binding protein (CRBP I) (Homo sapiens)
Sequence (P09455 whole entry): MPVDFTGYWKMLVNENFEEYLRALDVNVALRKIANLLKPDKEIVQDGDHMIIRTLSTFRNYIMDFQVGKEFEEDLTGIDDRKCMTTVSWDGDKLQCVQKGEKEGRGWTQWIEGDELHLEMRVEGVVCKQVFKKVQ
Method Notes: Dissociation constant to cellular retinol binding protein by fluorometric titration
Measurement Parameters: fluorometric titration, 150 mM NaCl, 0.1 mM DTT, 25 mM HEPES
Experimental Endpoint: Kd (nM)

(P) CC1=C(/C=C/C(C)=C/C=C/C(C)=C/CO)C(C)(C)CCC1 [retinol, all-trans retinol]
(Q) C=CC(C)=CC=CC(C)=CC=C1C(C)=CCCC1(C)C [AR, Anhydroretinol]
Input line: Which gives the smaller Kd number: P or Q ? Lab log: write the label of the selected item as the result.
Output line: P
(P: 13 nM, Q: 23 nM)
